Method description: NCI Yeast Anticancer Drug Screen. Data for the bub3 strain (AID 167)
Measurement parameters: S. cerevisiae bub3 mutant strain, at 50.0 µM
About 79,000 compounds went through this panel and 15% of them were active in at least one assay; those are over-represented in the sample as a whole. The source made the active and inactive calls. No stated cut-off is given here; in the data, active means growth inhibition above about 70%; inactive means the rest.
Outcomes: active, inactive

Molecule	Class name
Cc1nn(-c2ccccc2)c2c1N=C(C(=O)O)CC(c1ccccc1)=N2	inactive
COc1ccccc1Nc1n[nH]c(=S)s1	inactive
Clc1ccc(C2N(Cc3ccccc3)CCC3CCCCN32)cc1Cl (centres undefined)	inactive
Cc1cc([N+](=O)[O-])cc(C)c1N	inactive
CC(=O)Nc1ccc(S(=O)(=O)NCCC(=O)O)cc1	inactive
CCOc1ccc(CN(CCN2CCCCC2)c2ccccn2)cc1	inactive
CC(C)CCCC(C)C1CCC2(C)C3=C(CCC12C)C1(C)Cc2cnn(-c4ccccc4)c2C(C)(C)C1CC3 (centres undefined)	inactive
Cc1ccc(N=Nc2cc(C)c(N)cc2N)c(S(=O)(=O)O)c1	inactive
CCCCCCCCCCCl	inactive
CCOC(=O)c1cnc(-n2[nH]c(C)c(CCO)c2=O)[nH]c1=O	inactive
O=C1c2ccccc2CCC12OC2c1ccccn1 (centres undefined)	active
CN(C)C=Nc1cccc2c1NSN2	inactive
Cc1cc(C(=O)C=[N+]=[N-])c(CN2C(=O)c3ccccc3C2=O)c(=O)n1C	inactive
COC(=O)c1sc2c(=O)c(C(=O)OC)c(C(=O)OC)sc2c(=O)c1C(=O)OC	inactive
COC(=O)Nc1cn2nc(C)sc2n1	inactive
COc1cc(Br)c(C2SCC(=O)N2c2nncs2)cc1OC (centres undefined)	inactive
COc1ccc(OC)c(NC(=O)CCCC(=O)C(C#N)c2ccccc2C)c1 (centres undefined)	inactive
CCSc1n[nH]c(=O)nc1NN	inactive
CCCCCCCCCCCO/N=C\c1c2c(O)c3c(O)c(C)c4c(c3c1O)C(=O)C(C)(O/C=C\C(OC)C(C)C(OC(C)=O)C(C)C(O)C(C)C(O)C(C)/C=C\C=C(\C)C(=O)N2)O4 (centres undefined)	inactive
CCCCCCC(C)(C)NC(N)=O	inactive
N/N=C1\CCCc2c1no[n+]2[O-]	inactive
CC(=O)N(C)c1ccc(N=CN(C)C)cc1	inactive
CC(=O)/C=C(\c1ccccc1)c1c(O)c2ccccc2oc1=O	inactive
CN1C(=O)C2CC(=O)N(Cc3ccccc3)C(=O)C2C1=O (centres undefined)	inactive

* * *

Method description: NCI Yeast Anticancer Drug Screen. Data for the mec2-1 strain (AID 157)
Measurement parameters: S. cerevisiae mec2-1 strain, at 50.0 µM, stronger effect = higher value
This is part of a sample that, as a whole, favours compounds with a hit. Of some 79,000 tested, about 15% had one in any assay.
Property: growth inhibition (%)

In [3]: df
Out[3]:
                                    molecule  unit_spec  numeric_readout
 0  Cc1ccc(S(=O)(=O)OCC2CCC(COS(=O)(=O)c3ccc(C)cc3)O2)cc1 (centres undefined)          %            -14.4
 1  O=C(O)c1ccc(C2CCCCC2O)cc1 (centres undefined)          %             6.15
 2  CC(C)C12Cc3c(ccc4ccccc34)OC1(C)Oc1ccc3ccccc3c1C2 (centres undefined)          %            -17.4
 3                 N#C/C(=C/N1CCNC1=S)C(N)=O          %                5
 4                                     C#CCN          %                2
 5                       Nc1cc(C(=O)O)ccc1Cl          %             -8.1
 6  CCOC(=O)C1C(=S)NC(=O)C1C#N (centres undefined)          %            -0.05
 7                     CO[Si](C)(OC)c1ccccc1          %            -23.8
 8  CC(=O)OCC1OC(Sc2cccc3ccccc23)C(OC(C)=O)C(OC(C)=O)C1OC(C)=O (centres undefined)          %             -5.8
 9  CCC1COS(=O)(=O)CS(=O)(=O)O1 (centres undefined)          %            -16.2
10               COC(=O)c1c2c(cc3c1CCC3)CCC2          %            -3.15
11  COC(=O)[C@@H]1CCC(/C(C#N)=C2/CC[C@@H](C(=O)OC)N2)=N1          %             12.6
12                C(/C=C/c1csnn1)=C\c1ccccc1          %             8.85
13  CC1=NC2c3c(-c4ccc(Cl)cc4)cn(-c4ccc(C)cc4)c3N=CN2N1 (centres undefined)          %             -5.9
14  C/C=C(\CC)C(C)(C#N)C(=O)OCC (centres undefined)          %            -33.3
15  O=C1c2cc([N+](=O)[O-])sc2C(=O)c2c([N+](=O)[O-])csc21          %               93
16           COC(=O)NC(S(=O)(=O)O)S(=O)(=O)O          %             11.6
17  CCCCCCCOc1ccc(/C=C\c2cc[n+](CCCCCCCC[n+]3ccc(/C=C\c4ccc(OCCCCCCC)cc4)cc3)cc2)cc1          %            -7.95
18   Cc1ccc(C(=O)Nc2ccc([N+](=O)[O-])cc2)cc1          %            -6.75
19                         Cc1ccccc1NC(=O)CS          %             31.9
20  CN(CC1=C(O)C(=O)C(CN(C)Cc2c(O)ccc3ccccc23)=C(O)C1=O)Cc1c(O)ccc2ccccc12          %             4.85
21        CC(=O)NCCc1[nH]cnc1N=Nc1ccc(Br)cc1          %             39.4
22  COC(=O)CC1(C(=O)OC)Oc2ccc(Br)cc2C(=O)N1c1cccc(Cl)c1Cl (centres undefined)          %             13.8
23      Cc1cccc(C)c1NC(=O)CCC(=O)CC(=O)C(C)C          %            -4.85
